# credit: patent US20260242478A1

Target: T1, PSMA Fab
T1 construct: also called 006 PSMA Fab; anti-PSMA Fab
Assay: competition ELISA; peptide 0-100 µM with 0.3 nM PSMA Fab on plate-captured biotinylated PSMA
Where no end group is shown, it is not given here.
This section presents binders with their documented IC50 values.
property-measured: IC50

AMKWCTPRWMCAAE [Peptide-241]    9.16 µM
LAKWCTPRWMCAAE [Peptide-242]    13.7 µM
LMKWCTPRWMCAAA [Peptide-250]    6.64 µM
LMKWCAPRWMCAAE [Peptide-245]    49.7 µM
LMKWCTPRWMCAAE (cysteine pairing not given here; also: biotinylated, site not given here, PSMA mask peptide) [Peptide-179]    6.49 µM
LMAWCTPRWMCAAE [Peptide-243]    40.8 µM
LMKACTPRWMCAAE [Peptide-244]    34.5 µM
LMKWCTPAWMCAAE [Peptide-247]    19.7 µM
